Target: T1, EsCas13d, nuclease-dead (Eubacterium siraeum, UniProt B0MS50, R295A;H300A;R849A;H854A)
T1 sequence: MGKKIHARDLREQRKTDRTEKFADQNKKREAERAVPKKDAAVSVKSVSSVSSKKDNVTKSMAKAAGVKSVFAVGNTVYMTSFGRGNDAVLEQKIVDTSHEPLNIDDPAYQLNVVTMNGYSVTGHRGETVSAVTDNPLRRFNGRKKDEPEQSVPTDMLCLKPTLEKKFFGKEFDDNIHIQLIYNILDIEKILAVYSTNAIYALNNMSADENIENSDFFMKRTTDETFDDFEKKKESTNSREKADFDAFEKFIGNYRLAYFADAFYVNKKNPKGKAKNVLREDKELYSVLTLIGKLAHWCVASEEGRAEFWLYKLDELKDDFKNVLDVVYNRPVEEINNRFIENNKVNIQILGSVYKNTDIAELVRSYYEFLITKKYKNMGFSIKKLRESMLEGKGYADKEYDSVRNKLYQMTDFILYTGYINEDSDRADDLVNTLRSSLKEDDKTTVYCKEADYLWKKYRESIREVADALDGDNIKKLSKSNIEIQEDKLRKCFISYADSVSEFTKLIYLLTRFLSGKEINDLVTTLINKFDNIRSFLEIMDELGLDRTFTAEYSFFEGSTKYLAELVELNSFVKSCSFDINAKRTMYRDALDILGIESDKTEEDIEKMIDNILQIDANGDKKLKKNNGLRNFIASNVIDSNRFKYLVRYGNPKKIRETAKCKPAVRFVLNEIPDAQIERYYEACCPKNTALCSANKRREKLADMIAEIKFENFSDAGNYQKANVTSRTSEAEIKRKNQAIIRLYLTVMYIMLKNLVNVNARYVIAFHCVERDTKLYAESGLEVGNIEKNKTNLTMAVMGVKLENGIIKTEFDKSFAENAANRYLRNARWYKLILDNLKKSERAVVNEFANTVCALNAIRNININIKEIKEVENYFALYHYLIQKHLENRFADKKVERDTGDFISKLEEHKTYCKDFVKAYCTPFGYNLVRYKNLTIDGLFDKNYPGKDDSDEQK
Assay: crRNA (strand 1, pre-loaded); Mg2+; 40 mM Tris-HCl pH 7.5, 150 mM NaCl, 6 mM MgCl2, 1 mM DTT, 0.1% Tween-20, 0.2 mg/ml BSA; 25 C; 10 min per concentration, then washed
Conditions: tags: His6-TwinStrep-SUMO cleaved; N-terminal SNAP kept (SNAP-Surface 488); label: 3' end held by stalled T7 RNA polymerase
Each item that follows carries a reported Kd.

| binder | Kd |
| --- | --- |
| target 1 C6U,A14U (mixed) RNA 1: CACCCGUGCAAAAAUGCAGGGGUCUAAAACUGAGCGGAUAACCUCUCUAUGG RNA 2: GGGAAUGGAUCCACAUCUACGAAUUCGUACCAUAGAGUGGUUAUCUGCUCACCGAGAUCGGAAGAGCACACGU | 58 nM |
| target 1 insU 3' of 17,insC 3' of 5 (mixed) RNA 1: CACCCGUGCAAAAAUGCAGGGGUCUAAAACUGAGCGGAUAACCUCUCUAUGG RNA 2: GGGAAUGGAUCCACAUCUACGAAUUCGUACCAUAGUAGAGGUUAUCCGCCUCACCGAGAUCGGAAGAGCACACGU | 60 nM |
| target 1 C4A,G13A (mixed) RNA 1: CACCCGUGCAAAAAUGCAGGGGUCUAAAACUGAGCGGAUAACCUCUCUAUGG RNA 2: GGGAAUGGAUCCACAUCUACGAAUUCGUACCAUAGAGAAGUUAUCCGAUCACCGAGAUCGGAAGAGCACACGU | 14 nM |
| target 3 A12C,U22A (mixed) RNA 1: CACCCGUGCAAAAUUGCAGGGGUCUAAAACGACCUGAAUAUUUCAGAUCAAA RNA 2: GGGAAUGGAUCCACAUCUACGAAUUCGUUAUUGAUCUGACAUAUUCAGGUCUGCAGAUCGGAAGAGCACACGU | 71 nM |
| target 1 U19C,A20G (mixed) RNA 1: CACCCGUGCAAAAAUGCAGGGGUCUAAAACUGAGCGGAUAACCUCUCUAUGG RNA 2: GGGAAUGGAUCCACAUCUACGAAUUCGUACCGCAGAGAGGUUAUCCGCUCACCGAGAUCGGAAGAGCACACGU | 55 nM |
| target 2 MT 5'PFS CAU 3'PFS CGG (mixed) RNA 1: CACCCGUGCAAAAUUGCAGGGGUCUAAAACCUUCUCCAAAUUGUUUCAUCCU RNA 2: GGGAAUGGAUCCACAUCUACGAAUUCCAUAGGAUGAAACAAUUUGGAGAAGCGGAGAUCGGAAGAGCACACGU | 2.83 nM |
| target 3 G4U,U7A (mixed) RNA 1: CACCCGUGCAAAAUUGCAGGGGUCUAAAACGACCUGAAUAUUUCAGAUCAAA RNA 2: GGGAAUGGAUCCACAUCUACGAAUUCGUUUUUGAUCUGAAAUAUACAUGUCUGCAGAUCGGAAGAGCACACGU | 10.4 nM |
| target 3 del2,del22 (mixed) RNA 1: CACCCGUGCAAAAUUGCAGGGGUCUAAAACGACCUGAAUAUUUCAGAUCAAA RNA 2: GGGAAUGGAUCCACAUCUACGAAUUCGUUUUGAUCUGAAAUAUUCAGGCUGCAGAUCGGAAGAGCACACGU | 5.25 nM |
